Quick reference for pIC50 among some molecules
# measured-target: Sodium- and chloride-dependent GABA transporter 1 (Mus musculus, UniProt P31648)
# assay-details: Inhibition of mouse GAT1 expressed in HEK293 cell line assessed as inhibition of [3H]GABA uptake measured after 35 mins by liquid scintillation method
# Type: cell-based
pIC50: −log10 of the molar value.

{"molecule": "Cc1ccc(CNC(=O)C(CC(C)O)N(C)CCC=C(c2sccc2C)c2sccc2C)cc1 (stereo in doubt)", "pIC50": 4.60}
{"molecule": "Cc1ccsc1C(=CCCN(C)C(CCO)C(=O)NCc1ccc(F)cc1F)c1sccc1C (stereo not given)", "pIC50": 4.91}
{"molecule": "Cc1ccsc1C(=CCCN(C)[C@H](CO)C(=O)NCc1ccc(Cl)cc1)c1sccc1C", "pIC50": 4.69}
{"molecule": "Cc1ccsc1C(=CCCN(C)C(CC(C)O)C(=O)NCc1ccccc1)c1sccc1C (racemic; form 1)", "pIC50": 4.88}
{"molecule": "Cc1ccsc1C(=CCCN(C)C(CC(C)O)C(=O)NCc1ccc(F)cc1)c1sccc1C (racemic; form 1)", "pIC50": 4.18}
{"molecule": "Cc1ccsc1C(=CCCN(C)C(CO)C(=O)NCc1ccc(C(F)(F)F)cc1)c1sccc1C (stereo not given)", "pIC50": 4.87}
{"molecule": "Cc1ccsc1C(=CCCN(C)[C@H](CCO)C(=O)NCc1ccccc1Cl)c1sccc1C", "pIC50": 4.86}
{"molecule": "Cc1ccsc1C(=CCCN(C)C(CCN)C(=O)NCc1ccccc1)c1sccc1C (stereo not given)", "pIC50": 4.94}
{"molecule": "Cc1ccsc1C(=CCCN(C)C(CO)C(=O)NCc1ccccc1)c1sccc1C (stereo not given)", "pIC50": 4.45}
{"molecule": "Cc1ccsc1C(=CCCN(C)C(CO)C(=O)NCc1ccc(Cl)cc1)c1sccc1C (stereo not given)", "pIC50": 4.69}

###

# maps each entry to its pIC50
# measured-target: GABA transporter 4 (Mus musculus, UniProt P31650)
# Sequence (P31650 whole entry): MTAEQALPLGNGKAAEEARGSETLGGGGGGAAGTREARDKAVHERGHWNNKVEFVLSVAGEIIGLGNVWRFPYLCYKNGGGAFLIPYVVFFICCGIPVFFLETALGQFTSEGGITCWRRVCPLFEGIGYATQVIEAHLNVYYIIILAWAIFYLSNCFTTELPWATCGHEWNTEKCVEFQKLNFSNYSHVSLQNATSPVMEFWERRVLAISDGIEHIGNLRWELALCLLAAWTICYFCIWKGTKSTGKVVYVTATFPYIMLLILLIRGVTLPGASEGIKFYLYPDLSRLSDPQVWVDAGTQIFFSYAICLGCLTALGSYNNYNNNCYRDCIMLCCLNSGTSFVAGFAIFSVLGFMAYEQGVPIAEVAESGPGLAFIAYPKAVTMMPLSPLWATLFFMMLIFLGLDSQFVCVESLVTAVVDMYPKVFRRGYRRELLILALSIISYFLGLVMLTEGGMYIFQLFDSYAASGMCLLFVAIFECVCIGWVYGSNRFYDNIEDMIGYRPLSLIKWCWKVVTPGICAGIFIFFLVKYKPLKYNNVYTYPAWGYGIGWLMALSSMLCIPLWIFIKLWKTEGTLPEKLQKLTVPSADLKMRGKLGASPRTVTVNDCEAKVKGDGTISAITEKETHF
# assay-details: Inhibition of mouse GTA4 receptor
pIC50: −log10 of the molar value.

{"molecule": "O=C1Nc2ccc(-c3cccs3)cc2C1=O", "measured-target": "GABA transporter 4 (Mus musculus, UniProt P31650)", "bound-operator": "=", "pIC50": 5.20}
{"molecule": "COc1ccc(C(OCCN2CCC[C@@H](C(=O)O)C2)(c2ccc(OC)cc2)c2ccc(OC)cc2C)cc1", "measured-target": "GABA transporter 4 (Mus musculus, UniProt P31650)", "bound-operator": "=", "pIC50": 5.78}
{"molecule": "Cc1ccsc1C(=CCCN(C)[C@@H]1CCc2onc(O)c2C1)c1sccc1C", "measured-target": "GABA transporter 4 (Mus musculus, UniProt P31650)", "bound-operator": "<", "pIC50": 3.52}
{"molecule": "Cc1ccsc1C(=CCCN(C)[C@H]1CCc2onc(O)c2C1)c1sccc1C", "measured-target": "GABA transporter 4 (Mus musculus, UniProt P31650)", "bound-operator": "<", "pIC50": 3.52}
{"molecule": "NCCC(=O)O [BETA-ALANINE]", "measured-target": "GABA transporter 4 (Mus musculus, UniProt P31650)", "bound-operator": "=", "pIC50": 3.96}
